System: HCC1569
assay-protocol: H1.0 immunofluorescence intensity relative to DMSO (% of DMSO); higher = stronger H1.0 induction, active = 140 or more;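 also: TDF is a line of transformed human dermal fibroblasts of mesenchymal origin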
assay-conditions: concentration: 10 µM; 24 h
Param threshold (100) applies to H1.0 immunofluorescence intensity; output True when value >= threshold, False when value < threshold.

molecule | target | assigned-class
NC(=O)N1c2ccccc2CC(=O)c2ccccc21 [Oxcarbazepine] | HCC1569 | True
CNNCc1ccc(C(=O)NC(C)C)cc1 | HCC1569 | True
CC(C)OC(=O)C(C)(C)Oc1ccc(C(=O)c2ccc(Cl)cc2)cc1 [Fenofibrate] | HCC1569 | True
CCCCCCCCCCCC(CC1OC(=O)C1CCCCCC)OC(=O)C(CC(C)C)NC=O (configuration not stated) [Tetrahydrolipistatin] | HCC1569 | False

----------
System: TDF
assay-protocol: H1.0 immunofluorescence intensity relative to DMSO (% of DMSO); higher = stronger H1.0 induction, active = 120 or more
assay-conditions: concentration: 10 µM; 24 h
readout-label: H1.0 immunofluorescence intensity

molecule | target | observed
NC(=S)c1ccc[n+](C2OC(COP(=O)([O-])OP(=O)(O)OCC3OC(n4cnc5c(N)ncnc54)C(OP(=O)([O-])O)C3O)C(O)C2O)c1.[Na+] (configuration not stated) [Thio-NADP sodium] | TDF | 91.7
COc1ccc(S(=O)(=O)N2CCC[C@H]2C(=O)Nc2cc(C)cc(C)c2)cc1 | TDF | 95.5
COC12C(COC(N)=O)C3=C(C(=O)C(C)=C(N)C3=O)N1CC1NC12 (configuration not stated) [Mitomycin C] | TDF | 105
NNCCc1ccccc1.O=S(=O)(O)O [Phenelzine sulfate] | TDF | 95.3
COc1ccccc1NC(=O)Nc1nc(-c2cccnc2)nc2ccccc12 | TDF | 95.1
CC1C=CC=CC=CC=CC=CC=CC=CC(OC2OC(C)C(O)C(N)C2O)CC2OC(O)(CC(O)CC(O)C(O)CCC(O)CC(O)CC(=O)OC(C)C(C)C1O)CC(O)C2C(=O)O (configuration not stated) [Amphotericin B] | TDF | 105
O=C1NC(=O)C(c2c[nH]c3ccccc23)=C1c1c[nH]c2ccccc12 [Bisindolylmaleimide IV] | TDF | 94.7

----------
Test system: HCC1569
assay-protocol: H1.0 immunofluorescence intensity relative to DMSO (% of DMSO); higher = stronger H1.0 induction, active = 140 or more
assay-conditions: concentration: 10 µM; 24 h
readout-label: H1.0 immunofluorescence intensity

compound | observed
COc1cc(C(C)=O)cc(-c2cc(C(C)=O)cc(OC)c2O)c1O | 100
NC1CCN(c2nc3c(cc2F)c(=O)c(C(=O)O)cn3-c2ccc(F)cc2F)C1 (stereo unspecified) | 104
CC1(C)C2CCC1(C(=O)O)C(=O)C2 (stereo unspecified) | 88.3
O=c1nc[nH]c2c1ncn2C1CCC(CO)O1 (stereo unspecified) | 109
CC(=O)C1CCC2C3CC=C4CC(O)CCC4(C)C3CCC12C (stereo unspecified) | 112
CCCCS(=O)(=O)N[C@@H](Cc1ccc(OCCCCC2CCNCC2)cc1)C(=O)O.Cl.O | 104
CC(C)Cc1ccc(C(C)C(=O)O)cc1 (stereo not drawn) [S(+)-Ibuprofen] | 90.5
CC(=O)OCC=C(C)C=CC=C(C)C=CC1=C(C)CCCC1(C)C [Vitamin A acetate] | 119
Cn1sc(=O)n(Cc2ccccc2)c1=O | 134
CN1C2CCC1CC(NC(=O)c1nn(C)c3ccccc13)C2.O=C(O)C=CC(=O)O (stereo unspecified) [LY-278,584 maleate] | 93
CCCCCCCCC=CCCCCCCCC(=O)O [9(E)-Octadecenoic acid] | 101
CCOC(=O)Oc1c(OC)cc(C(=O)OC2CC3CN4CCc5c([nH]c6cc(OC)ccc56)C4CC3C(C(=O)OC)C2OC)cc1OC (stereo unspecified) | 105
O=C(c1cc(O)c(O)c([N+](=O)[O-])c1)c1ccccc1F | 99.2
CC(N=C(NC#N)Nc1ccncc1)C(C)(C)C (stereo unspecified) | 101
CCCCCC(O)C=CC1C(O)CC(O)C1CC(=O)CCCCC(=O)O (stereo unspecified) | 108
Cc1cc2c(s1)=Nc1ccccc1NC=2N1CCN(C)CC1 | 95.6
Cc1cccc(-c2[nH]ncc2-c2ccc3ncccc3n2)n1 | 92.8
CCCCCCCCCCCCCCCC(=O)C(F)(F)F | 94.4
CC(CCc1ccc(O)cc1)NCCc1ccc(O)c(O)c1.Cl (stereo unspecified) [Dobutamine.HCl] | 105
O=C(Nc1cccc(-c2ccccc2)c1)OC1CCCCC1 [cyclohexyl [1,1'-biphenyl]-3-ylcarbamate] | 88.6
CCCCc1c(-c2ccc(OC)cc2)[nH]c2nccnc12 | 110
CC1(C)OC2CC(=O)OCC23C1CC(=O)C1(C)C3CCC2(C)C(c3ccoc3)OC(=O)C3OC321 (stereo unspecified) | 90
CCCOc1ccccc1-c1nc2[nH][nH]nc-2c(=O)n1 | 104
CNCC(O)c1cccc(O)c1.Cl (stereo unspecified) [Phenylephrine hydrochloride] | 94.3
COC(=O)c1c(-c2cc(OC)c(OC)c(OC)c2)c2ccnc(OCc3ncccn3)c2c(=O)n1Cc1ccnc(C)c1.Cl | 95.2
Cc1c(Cl)cccc1Nc1ccccc1C(=O)O | 95
CCC(Sc1nnc2c(n1)[nH]c1ccccc12)C(=O)N1c2ccccc2Sc2ccccc21 (stereo unspecified) | 700
Cl.O=S(=O)(c1cccc2c(I)cccc12)N1CCCNCC1 | 89.8
O=C(O)c1ccccc1Nc1ccccc1 | 97.5
C[C@@H]1CCN(C(=O)CC#N)C[C@@H]1N(C)c1ncnc2[nH]ccc12 | 96.3
CC[C@H](C(=O)Nc1ccccc1N1CCCC1)c1ccccc1 [(2S)-2-Phenyl-N-[2-(1-pyrrolidinyl)phenyl]butanamide] | 105
C[C@@H](c1nc(-c2ccc(C#N)cc2)cs1)[C@](O)(Cn1cncn1)c1ccc(F)cc1F | 129
C[N+](C)(C)C(Cc1c[nH]c(=S)[nH]1)C(=O)[O-] (stereo unspecified) | 100
Cn1cnc2c(NCc3ccccc3)nc(NCCO)nc21 [Olomoucine] | 94.1
CC(C)N(CCC(=O)c1ccc2ccccc2c1)Cc1ccccc1.Cl [JAK3 Inhibitor IV] | 110
O=c1c(-c2ccc(O)cc2)coc2cc(OC3OC(CO)C(O)C(O)C3O)cc(O)c12 (stereo unspecified) | 86.4
